Below, each entry is listed alongside its reported residual activity 2B7.
Target: UGT2B7 (Homo sapiens)
Sequence (P16662 24-529): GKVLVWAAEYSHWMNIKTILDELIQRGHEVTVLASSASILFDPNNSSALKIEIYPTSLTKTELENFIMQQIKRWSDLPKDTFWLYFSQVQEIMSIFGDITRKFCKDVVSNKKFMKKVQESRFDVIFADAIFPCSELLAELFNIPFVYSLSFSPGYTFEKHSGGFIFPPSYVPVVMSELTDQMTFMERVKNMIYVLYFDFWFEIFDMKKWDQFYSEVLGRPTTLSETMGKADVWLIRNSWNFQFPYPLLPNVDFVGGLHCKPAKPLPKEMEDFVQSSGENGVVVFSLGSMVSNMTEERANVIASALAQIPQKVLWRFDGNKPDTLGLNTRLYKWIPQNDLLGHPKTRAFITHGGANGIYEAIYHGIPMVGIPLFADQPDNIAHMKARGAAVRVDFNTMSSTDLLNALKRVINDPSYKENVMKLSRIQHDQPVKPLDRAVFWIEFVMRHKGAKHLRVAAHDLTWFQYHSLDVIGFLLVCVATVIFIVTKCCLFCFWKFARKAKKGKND
Assay: UGT2B7 supersomes-catalyzed 4-MU glucuronidation inhibition
Conditions: 50 μM LPC components; recombinant human UGT; mean of triplicate

sample smiles	target or system	residual activity 2B7, %
CCCCCC(=O)OC[C@@H](O)COP(=O)([O-])OCC[N+](C)(C)C	UGT2B7 (Homo sapiens)	70.0
CCCCCCCCCCCCCC(=O)OC[C@@H](O)COP(=O)([O-])OCC[N+](C)(C)C	UGT2B7 (Homo sapiens)	90.5
CCCCCCCCCCCCCCCCC(=O)OC[C@@H](O)COP(=O)([O-])OCC[N+](C)(C)C	UGT2B7 (Homo sapiens)	81.5
